Biological target: bovine vesicular acetylcholine transporter (VAChT) (Bos taurus)
Sequence (E1BK36 1-524): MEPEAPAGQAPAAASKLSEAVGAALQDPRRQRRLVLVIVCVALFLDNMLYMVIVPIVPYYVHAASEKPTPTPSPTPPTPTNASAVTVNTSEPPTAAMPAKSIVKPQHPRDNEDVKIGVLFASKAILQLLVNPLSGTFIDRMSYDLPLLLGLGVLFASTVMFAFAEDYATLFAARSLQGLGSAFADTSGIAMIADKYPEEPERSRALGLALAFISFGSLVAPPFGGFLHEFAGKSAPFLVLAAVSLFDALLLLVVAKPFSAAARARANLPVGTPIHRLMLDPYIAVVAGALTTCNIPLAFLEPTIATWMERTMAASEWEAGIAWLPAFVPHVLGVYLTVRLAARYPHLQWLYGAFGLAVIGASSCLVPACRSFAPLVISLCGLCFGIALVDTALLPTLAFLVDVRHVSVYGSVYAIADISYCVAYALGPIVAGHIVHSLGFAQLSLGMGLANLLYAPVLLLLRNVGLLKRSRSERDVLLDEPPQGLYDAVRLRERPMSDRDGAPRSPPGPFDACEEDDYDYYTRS
Experiment: Radioligand Binding Assay
Details: Bovine binding Ki, CHO-K1 membranes with recombinant bovine VAChT, [3H]Compound X6 0.3 nM
We begin with a simple list: items and their reported Ki.
Provide the reading as a plain figure in nM.

Some solved cases for reference:
1) O=C(NCc1ccnc(Cl)c1)N1CC2(CCN(C/C=C/c3ccc(Cl)c(Cl)c3)CC2)c2cc3c(cc21)COC3 : 70
2) Cc1nc2c3c(ccc2s1)N(C(=O)NCc1ccnc(Cl)c1)CC31CCN(C/C=C/c2ccc(C(F)(F)F)cn2)CC1 : 3220
3) O=C(NCc1ccnc(Cl)c1)N1CC2(CCN(C/C=C/c3ccc(Cl)cc3)CC2)c2c1cccc2C(F)(F)F : 396
4) COc1ccc(/C=C/CN2CCC3(CC2)CN(C(=O)NCc2ccnc(Cl)c2)c2ccc(C(F)(F)F)cc23)cc1 : 266
5) COc1nccc2c1C1(CCN(C/C=C/c3ccc(Cl)c(Cl)c3)CC1)CN2C(=O)NCc1ccnc(Cl)c1 : 815

Form field: reported Ki of O=C(NCc1ccnc(Cl)c1)N1CC2(CCN(C/C=C/c3ccc(F)cc3)CC2)c2c(Cl)cc(Cl)cc21
259

Request the reported Ki associated with O=C(NCc1ccnc(Cl)c1)N1CC2(CCN(C/C=C/c3ccc(Cl)cc3)CC2)c2cc(S(=O)(=O)C(F)(F)F)ccc21
1290

// query Ki value for entry O=C(NCc1ccnc(C(F)(F)F)c1)N1CC2(CCN(C/C=C/c3ccc(C(F)(F)F)cc3)CC2)c2cc(OC(F)(F)F)ccc21
1670

What measured Ki goes with O=C(NCc1ccnc(Cl)c1)N1CC2(CCN(C/C=C/c3ccc(Cl)cc3)CC2)c2cc3c(cc21)OCO3 ?
35.4

Quick one: Ki of O=C(NCc1ccnc(Cl)c1)N1CC2(CCN(C/C=C/c3ccc(C(F)(F)F)cc3)CC2)c2cc(OC(F)(F)F)ccc21 ?
816

Query (compound): O=C(NCc1ccnc(Cl)c1)N1CC2(CCN(C/C=C/c3ccc(Cl)cc3)CC2)c2cc(SC(F)(F)F)ccc21 ; field requested: Ki
191

Which measured Ki value corresponds to O=C(NCc1ccnc(F)c1)N1CC2(CCN(C/C=C/c3ccc(Cl)cc3)CC2)c2c1cccc2C(F)(F)F ?
796

What does the record list as Ki for COc1ccc(-c2ccc3c(c2)C2(CCN(C/C=C/c4ccc(Cl)cc4)CC2)CN3C(=O)NCc2ccnc(Cl)c2)cn1 ?
177

Which value of Ki has been reported for O=C(NCc1ccnc(F)c1)N1CC2(CCN(C/C=C/c3ccc(Cl)cc3)CC2)c2cc(-c3cc[nH]c(=O)c3)ccc21 in the records?
11200

###

target: bovine vesicular acetylcholine transporter (VAChT) (Bos taurus); test: Radioligand Binding Assay; details: Bovine binding Ki, CHO-K1 membranes with recombinant bovine VAChT, [3H]Compound X6 0.3 nM
Reported pKi values are given for each entry in this list.
A value of pKi is the negative decimal logarithm of a concentration given in moles per litre.

Past entries and their recorded results:
1) COc1cc(CNC(=O)N2CC3(CCN(C/C=C/c4ccc(C(F)(F)F)cc4)CC3)c3cc(Cl)ccc32)ccn1 : 6.74
2) O=C(NCc1ccnc(Cl)c1)N1CC2(CCN(C/C=C/c3ccc(F)cc3)CC2)c2c1ccc1scnc21 : 7.34
3) O=C(NCc1ccnc(Cl)c1)N1CC2(CCN(C/C=C/c3ccc(Cl)c(Cl)c3)CC2)c2c1ccc(Cl)c2Cl : 6.80

Now, please, on to the next compound.
Recorded pKi for O=C(NCc1cnc(Cl)s1)N1CC2(CCN(C/C=C/c3ccc(Cl)cc3)CC2)c2c1ccc(Cl)c2Cl , please?
6.94

###

Recorded measurements of Ki, one per entry
Target: bovine vesicular acetylcholine transporter (VAChT) (Bos taurus)
Sequence (E1BK36 1-524): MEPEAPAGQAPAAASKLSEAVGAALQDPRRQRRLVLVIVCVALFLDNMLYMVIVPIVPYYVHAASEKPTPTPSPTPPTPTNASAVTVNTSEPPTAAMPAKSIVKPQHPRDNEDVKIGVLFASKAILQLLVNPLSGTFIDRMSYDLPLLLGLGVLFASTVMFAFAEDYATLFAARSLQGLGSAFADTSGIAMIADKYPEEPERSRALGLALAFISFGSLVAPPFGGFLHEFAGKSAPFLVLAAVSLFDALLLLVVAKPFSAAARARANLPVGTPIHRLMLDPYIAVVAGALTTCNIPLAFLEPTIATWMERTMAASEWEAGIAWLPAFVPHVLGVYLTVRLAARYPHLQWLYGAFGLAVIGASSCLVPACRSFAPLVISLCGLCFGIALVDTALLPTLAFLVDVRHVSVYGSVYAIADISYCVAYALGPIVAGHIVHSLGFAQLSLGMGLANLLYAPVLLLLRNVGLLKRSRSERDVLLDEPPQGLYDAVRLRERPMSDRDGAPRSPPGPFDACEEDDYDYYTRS
Experiment: Radioligand Binding Assay
Settings: Bovine binding Ki, CHO-K1 membranes with recombinant bovine VAChT, [3H]Compound X6 0.3 nM
Just the number please, in nM, no unit attached.

Take a look at these entries with their results.
1. O=C(NCc1ccnc(Cl)c1)N1CC2(CCN(Cc3ccc4cc(F)ccc4c3)CC2)c2cc(Cl)ccc21 : 20.1
2. O=C(NCc1ccc(Cl)cc1)N1CC2(CCN(C/C=C/c3ccc(Cl)c(Cl)c3)CC2)c2c1ccc1scnc21 : 2120
3. O=C(NCc1ccnc(F)c1)N1CC2(CCN(C/C=C/c3ccc(Cl)c(Cl)c3)CC2)c2cc(-c3cccnc3)ccc21 : 7820
4. N#Cc1ccc(/C=C/CN2CCC3(CC2)CN(C(=O)NCc2ccnc(Cl)c2)c2ccc([N+](=O)[O-])cc23)cc1 : 63.7
5. O=C(NCc1ccnc(F)c1)N1CC2(CCN(C/C=C/c3ccc(Cl)cc3)CC2)c2c(C3CC3)cccc21 : 958
6. N#Cc1ccc(-c2ccc3c(c2)C2(CCN(C/C=C/c4ccc(Cl)c(Cl)c4)CC2)CN3C(=O)NCc2ccnc(F)c2)cn1 : 58.5

Next molecule, please.
Item O=C(NCc1ccnc(Cl)c1)N1CC2(CCN(C/C=C/c3ccc(F)cc3)CC2)c2c1ccc(Cl)c2Cl has what recorded Ki?
114

###

Catalogue of minimal effective concentration readings, one per entry.
tested on: Dirofilaria immitis microfilariae; experiment: Dirofilaria immitis, Microfilariae (DiMF) In Vitro Assay; settings: Dirofilaria immitis; 72 hours; read-out: Di MF
Please respond with the number in µM and leave the unit unwritten.

Below, 3 compounds whose answers are already recorded.
1) O=C(NCc1ccnc(Cl)c1)N1CC2(CCN(C/C=C/c3ccc(Cl)c(Cl)c3)CC2)c2cc(Cl)c(C(F)(F)F)cc21 [Example 135] : 57.4
2) O=C(NCc1ccnc(Cl)c1)N1CC2(CCN(C/C=C/c3ccc(Cl)cc3)CC2)c2cc(F)c(C(F)(F)F)cc21 [Example 126] : 10
3) COc1ccc(/C=C/CN2CCC3(CC2)CN(C(=O)NCc2ccnc(Cl)c2)c2ccc(C(F)(F)F)cc23)cc1 [Example 168] : 3.3

Missing value: minimal effective concentration, Dirofilaria immitis microfilariae, entry O=C(NCc1ccnc(C(F)(F)F)c1)N1CC2(CCN(C/C=C/c3ccc(Cl)cc3)CC2)c2cc(OC(F)(F)F)ccc21 [Example 179] . Fill in?
3.3

Field: minimal effective concentration (Dirofilaria immitis microfilariae). Entry: O=C(NCc1cnc(Cl)s1)N1CC2(CCN(C/C=C/c3ccc(Cl)cc3)CC2)c2cc(OC(F)(F)F)ccc21 [Example 189]
14

API: value(readout= minimal effective concentration, system= Dirofilaria immitis microfilariae, query= Cn1nccc1CNC(=O)N1CC2(CCN(C/C=C/c3ccc(Cl)c(Cl)c3)CC2)c2c1ccc1scnc21 [Example 27] )
10

What is its minimal effective concentration for Dirofilaria immitis microfilariae? Entry: O=C(NCc1ccnc(Cl)c1)N1CC2(CCN(C/C=C/c3ccc(Cl)cc3)CC2)c2c(Cl)cc(Cl)cc21 [Example 59]
10
